observation_type: melting point

Entry CCSc1nc2cccc(C(=O)OC)c2n1Cc1ccc(-c2ccccc2-c2nc(=O)o[nH]2)cc1 : reported melting point = ?
210 to 211 °C

###

Quick list: melting point per entry.

# annotated cases, reported melting point shown
| molecule | result |
| --- | --- |
| CS(=O)(=O)c1ccc(C(O)C(CF)NC(=O)C(F)F)cc1 (stereo not given) | 141 to 142 °C |
| COc1ccc(COCc2nc(C(C)C)c(Sc3cc(Cl)cc(Cl)c3)[nH]2)cc1 | 96 to 97 °C |
| O=C(c1cc(-c2ccccc2)c(=O)n2c1-c1ccccc1C2)N1CCN(c2ccccc2)CC1 | 208 to 210 °C |
| CCOC(=O)C1=C(C)NC(C)=C(C(=O)OCC)C1c1ccccc1/C=C(\C)C(=O)O | 205 to 207 °C |
| Cc1ccc(CC2CCN(C(=O)C(=O)Nc3ccc4c(c3)CC(=O)N4)CC2)cc1 | 235 to 237 °C |
| N#CN=CNc1nc(OCc2ccc(F)cc2)ncc1F | 148 to 149 °C |
| CCCN(CCC)C(=O)Cc1c(-c2ccc(C)cc2)nn2cccnc12 | 110 to 111 °C |
| CC(C)(CCc1ccc(NC=NO)cc1)CN1CCCC1 | 120 to 122 °C |

Entry COc1ccncc1C#N : reported melting point = ?
124 to 126 °C

Do the same for CCCCCCCCOc1ccc(-c2ccc(C3CCC(CCC)C3)cc2)cc1 (stereo not given) please
84 °C

###

observation_type: melting point

# annotated cases, reported melting point shown
| compound | result |
| --- | --- |
| CCOC(=O)CCn1c(-c2ccccc2)c(-c2ccccc2)n(-c2ccccc2)c1=O | 111 to 112 °C |
| CCCn1c(COCc2ccc(OC)cc2)nc(C(C)C)c1Sc1cc(Cl)cc(Cl)c1 | 104 to 107 °C |
| C=C(Br)c1cc(O)cc2nc(-c3ccc(O)c(F)c3F)oc12 | 240 to 242 °C |
| O=C1COc2ccccc2O1 | 45 to 53 °C |

Entry CC1Cc2c(c3cccnc3n(-c3cccc(C(F)(F)F)c3)c2=O)O1 (configuration not stated) : reported melting point = ?
205 to 207 °C

Do the same for Cc1cc(C)nc(N(C=O)c2ccccc2)n1 please
134 to 135 °C

###

Quick list: melting point per entry.

# annotated cases, reported melting point shown
| compound | result |
| --- | --- |
| COC(=O)c1ccc(CN2CCOc3ccc([N+](=O)[O-])cc32)c(OC)c1 | 130 to 132 °C |
| Cc1cc(-c2ccccc2)n2ncc(C(=O)c3ccccc3)c2n1 | 165 to 166 °C |
| COc1cc(OC)c(F)c(N2Cc3cnc(NC[C@H](O)[C@@H](O)CO)nc3N(C3CCCC3)C2=O)c1 | 86 to 88 °C |
| CC(C)(C)c1csc(-c2cc3cc(OCc4cccc(C#N)c4)ccc3o2)n1 | 104 to 106 °C |

Entry CCOP(=O)(Cc1ccc(NC(=O)/C=C/c2cn(Cc3ccccc3)nc2-c2ccc(F)cc2)cc1)OCC : reported melting point = ?
199 to 200 °C

Do the same for COc1ccc(COc2cccc(N)c2N)cc1 please
127 °C

###

observation_type: melting point

| compound | melting point |
| --- | --- |
| O=C(O)C(=O)c1ccc(OC/C=C/c2ccc3ccccc3c2)cc1 | 142 to 143 °C |
| O=C(O)c1cc(=O)c2cc(F)ccc2[nH]1 | 206 to 210 °C |
| NS(=O)(=O)c1cc(Br)cc(C(F)(F)F)c1 | 174 to 175 °C |

Entry Fc1cc(F)c2c(c1)CC(n1cc[nH]c1=S)CC2 (stereo unspecified) : reported melting point = ?
250 to 251 °C

Do the same for COc1ccc2ncc(CC(N)C(=O)O)cc2c1 (stereo unspecified) please
246 to 247 °C

Do the same for COCC(C#N)=Cc1cc(OC)c2c(c1)OCO2 please
115 °C

###

observation_type: melting point

| compound | melting point |
| --- | --- |
| Cc1scc2c1N(C(=O)NCCN1CCC(CCCCN3CCCCC3)CC1)c1ccccc1NC2=O | 186 to 187 °C |
| Cc1ccc(-c2[nH]c(-c3cnc4ccccc4c3)nc2C(=O)Nc2nccs2)cc1 | > 250 °C |
| Clc1ccc(CCC(Cn2ccnc2)OCc2ccc(Cl)c(Cl)c2)cc1 (stereo unspecified) | 87.5 to 89.5 °C |
| CN1CCC(c2c[nH]c3ccc(C(=O)c4ccccn4)cc23)CC1 | 90 °C |
| CC#CCOc1ccc(S(=O)(=O)C(CCCCCC#N)C(=O)NO)cc1 (stereo unspecified) | 120 °C |
| COC(=O)c1ccc(C#C[Si](C)(C)C)cn1 | 45 °C |
| CC(C)(C(=O)O)c1cc(C(=O)c2ccccc2)ccc1O | 207 °C |
| C#Cc1cccc(OCc2ccc(OC)cc2)c1 | 92 to 95 °C |

Entry COc1ccc(SC2(CCCC#Cc3ccc(Cl)cc3)SC(=O)NC2=O)cc1 (stereo unspecified) : reported melting point = ?
106 to 109 °C

Do the same for Cc1c(NC(=O)c2ccc(-c3ccc(F)cc3)cc2F)ccc2cc(CN3CCCCCC3)cnc12 please
159 to 160 °C

Do the same for CCn1cc(C(=O)O)c(=O)c2cc(F)c(N3CCNCC3)c(OC)c21 please
169 °C

Do the same for O=[N+]([O-])c1ccc(S(=O)(=O)C2COCC2Br)cc1 (stereo unspecified) please
155 to 157 °C

Do the same for CN(C)C(=O)C(=O)c1c[nH]c2ccc(Br)cc12 please
189 to 190 °C

Do the same for CCCCOc1ccc(CC(=O)N[C@@H](C(=O)O)[C@@H](C)O)cc1 please
90 to 94 °C

###

Quick list: melting point per entry.

# annotated cases, reported melting point shown
| molecule | observation_type | result |
| --- | --- | --- |
| COc1cc2sc(C(=N)NO)cc2cc1OC(F)F | melting point | 176 to 177 °C |
| Cc1cc(O)n2nc(S(=O)(=O)Nc3c(Cl)ccc(C)c3Cl)nc2n1 | melting point | 346 to 347 °C |
| COC(=O)Cc1ccc(C(C)(C)C)c([N+](=O)[O-])c1 | melting point | 92 to 95 °C |
| CCCCNS(=O)(=O)c1cc(C(=O)O)cc([N+](=O)[O-])c1Cl | melting point | 199 to 201 °C |
| COC(=O)C1(O)Cc2cc(Cl)ccc2C1=O (single isomer, unassigned; (+)) | melting point | 163 to 165 °C |

Entry Cc1ccccc1C(=O)OCC1OC(N2CN(C)C(=O)NC2=O)CC1OC(=O)c1ccccc1C (stereo not given) : reported melting point = ?
184 to 185 °C

Do the same for COC(CN(C)C(=O)Nc1nnc(C(C)Oc2ccc(Cl)cc2Cl)s1)OC (stereo not given) please
125 to 127 °C

Do the same for CNc1c(N)cnn1CCO please
138 to 140 °C

Do the same for CCc1noc(C=C(N)c2ccccc2)c1C(=O)NC please
125 to 132 °C

Do the same for CC(C)(C)c1cc(CC2=NC(=S)SC2)cc(C(C)(C)C)c1O please
138 to 140 °C

###

Quick list: melting point per entry.

# annotated cases, reported melting point shown
| compound | melting point |
| --- | --- |
| COc1ccc2nc(COc3cccc(C(=O)Nc4cc(CCCS(=O)(=O)c5ccc(Cl)cc5)ccc4OCC(=O)O)c3)sc2c1 | 187 to 189 °C |
| Cc1sc2c(c1C)C(C1CCCCC1)=NCC(=O)N2 | 205 °C |

Entry CNS(=O)(=O)c1cc(OC)c(OC)c(C(=O)NCC2CCCN2CC2=CCCCC2)c1 (stereo not given) : reported melting point = ?
120 to 121 °C

Do the same for O=C1C(=NOCCO)Oc2ccccc21 please
110 to 111 °C

Do the same for COC(=O)Cn1nnnc1-c1ccc(Cl)cc1 please
156 to 158 °C

Do the same for O=C1CC(c2c(Cl)cccc2Cl)CN1 (stereo not given) please
153 to 154 °C

Do the same for CCOC(=O)c1cc2cc(OCCCS(C)(=O)=O)cc(NS(=O)(=O)c3ccccn3)c2[nH]1 please
194 to 195 °C

Do the same for CCCCCCCOc1cc2c(cc1C(C)=O)C(C)(C)CCS2 please
69 to 71 °C

Do the same for CC(=O)N(c1cc(F)c(C#N)cc1F)c1nnnn1-c1ccc(OC(F)(F)F)cc1 please
108 to 110 °C

Do the same for CC1OC1COc1ccc(C(=O)OC(C)(C)C)cc1 (stereo not given) please
47 to 48 °C

###

Quick list: melting point per entry.

# annotated cases, reported melting point shown
| molecule | melting point |
| --- | --- |
| CC(C)CCCC(C)C1CCC2C3C(=O)C=C4CC(O)CCC4(C)C3CCC12C (stereo not given) | 169 to 170 °C |
| CCOC(=O)COc1ccc(C=NCCN=Cc2ccc(OCC(=O)OCC)cc2O)c(O)c1 | 104 to 106 °C |
| CCN1CCN(c2ccc(-c3[nH]nc4c3C(=O)c3c(NC(=O)NN5CCOCC5)cccc3-4)cc2)CC1 | 245 °C |
| COC[C@@H]1CCCN1S(=O)(=O)c1ccc(Cl)c(COc2cccc3c(-n4ccnc4)cc(C)nc23)c1Cl | 66 °C |
| CCCCCC(=N)NC(=O)Nc1ccc(Cl)cc1 | 175 to 179 °C |
| CCN(CC)CCNC(=O)c1cc(Cl)c(N)cc1OCCCN1C(=O)c2ccccc2C1=O | 141 to 143 °C |

Entry COC(=O)c1ccc(N2C(=O)CCC2CN=[N+]=[N-])c([N+](=O)[O-])c1 (stereo not given) : reported melting point = ?
68 to 70 °C

Do the same for Nc1ccccc1NC(=O)c1ccc(CNC(=O)c2[nH]c(-c3ccoc3)cc2-c2ccc(O)cc2)cc1 please
70 to 72 °C

Do the same for CC1CC(=O)C(C(=O)c2ccc(C(F)(F)F)cc2[N+](=O)[O-])C(=O)O1 (stereo not given) please
135 to 136 °C

Do the same for O=C(CCCN1C(=O)c2ccccc2C1=O)Nc1nnc(SCc2ccccc2)s1 please
128 to 131 °C

Do the same for OCCSc1c(Cl)c(Cl)c(SCCO)c(Cl)c1Cl please
149 to 152 °C

Do the same for C=C(C)n1c(=O)n(CCN2CCC(N(C)C(=O)c3ccccc3)CC2)c2ccccc21 please
120 to 122 °C

Do the same for O=C(c1ccc(-c2cnc3c(c2)N(Cc2cc(F)ccc2F)CCN3)cc1)N1CCC(N2CCCC2)CC1 please
202 to 204 °C

Do the same for CC(C)(C)c1cc(CCC(=O)NCCNCCNCCNC(=O)CCc2cc(C(C)(C)C)c(O)c(C(C)(C)C)c2)cc(C(C)(C)C)c1O please
80 to 110 °C

Do the same for N#Cc1c2c(c3c(c1N1CCCC1)CCc1ccccc1-3)-c1ccccc1C2 please
220 to 222 °C

Do the same for N#Cc1ncn2c(-c3cccnc3)ccnc12 please
258 to 260 °C

Do the same for CCOC(=O)c1c(C(F)(F)F)nc(C(F)F)c(C(=O)OC)c1F please
40 to 41 °C

Do the same for CCCCCCCC[C@H]1CC[C@H](C(=O)O)CC1 please
36 to 37 °C

Do the same for O=C(CCNc1c(C(=O)O)[nH]c2cc(Cl)ccc12)c1cccc(F)c1 please
258 to 260 °C

Do the same for CC(=O)NC[C@H]1CN(c2ccc(N3CCC(=CC4(C#N)CC4)CC3)c(F)c2)C(=O)O1 please
175 to 179 °C

Do the same for COCOCCCOn1cnc2cnc(NC=O)nc21 please
115 to 116 °C
